# Test system: SF-295
# measurement_notes: NCI tumour cell line growth inhibition, 48 h
Activity calls are given as the source filed them. Rule as the data show it: active = GI50 up to about 1.1 µM and inactive = higher.
assay_endpoint: GI50

molecule	assay_endpoint	result
COc1ccc(CCCCl)c(C2=NCCc3cc(OC)c(OC)cc32)c1	GI50	48.5 µM (inactive)
Oc1ccc2c(c1)CC[N+]1=C2CCC2CCCC21 (stereo not given) [QUINDONIUM BROMIDE]	GI50	> 100 µM (inactive)
S=C1SC(c2ccc(Cl)cc2)(c2ccc(Cl)cc2)c2ccccc21	GI50	53.7 µM (inactive)
O=c1[nH]c(=O)n(Cc2ccccc2CO)cc1Sc1ccccc1	GI50	30 µM (inactive)
CS/C(=N/S(=O)(=O)c1ccc(Cl)cc1)NCCCN/C(=N\S(=O)(=O)c1ccc(Cl)cc1)SC	GI50	12.7 µM (inactive)

* * *

# System: A549
# measurement_notes: NCI tumour cell line growth inhibition, 48 h
Calls of active or inactive are those of the source. No stated cut-off is given here; in the data, active = GI50 up to about 1.1 µM and inactive = higher.
The entries below come with measured GI50 values attached.
assay_endpoint: GI50

molecule	result
Cc1ccc(C)c(NC(=O)C(=O)C(c2cnc3ccc([N+](=O)[O-])cc3n2)[N+](=O)[O-])c1 (stereo not given)	58.3 µM (inactive)
CN(N)/N=N/c1[nH]cnc1C(N)=O	> 100 µM (inactive)
O=C1C=C(Nc2ccccc2C(=O)c2ccccc2)c2ccccc2C1=O	> 100 µM (inactive)
Cc1ccc(Cl)c2c1NC(=O)/C2=N\Nc1ccccc1[N+](=O)[O-]	83 µM (inactive)
O=[N+]([O-])c1cccc(C2=NN(c3ccccc3)C3c4ccccc4OCC23)c1 (stereo not given)	> 100 µM (inactive)
O=C(NC1CCCCC1)NS(=O)(=O)c1ccc2c(c1)CCC2 [GLYHEXAMIDE]	> 100 µM (inactive)
BC(=O)NC(CC(C)C)C(=O)NCC(=O)NC1c2ccsc2C(=O)C1O.CN(C)C (stereo not given)	> 100 µM (inactive)
CCOC(=O)CCC(C(=O)OCC)n1nc2ccc(Nc3c(C)[n+]([O-])c4cc(Cl)ccc4[n+]3[O-])cc2n1 (stereo not given)	> 100 µM (inactive)
C/C=C/C(C/C=C(\C)CO[Si](C)(C)C(C)(C)C)O[Si](C)(C)C(C)(C)C (stereo not given)	> 100 µM (inactive)
COc1cc2ccnc3c2c(c1O)N(C)C=C3	20.2 µM (inactive)

* * *

Each entry below carries its recorded GI50.
# System: OVCAR-8
# measurement_notes: NCI tumour cell line growth inhibition, 48 h
Active and inactive are the calls of the source. Rule as the data show it: active = GI50 up to about 1.1 µM and inactive = higher.

compound	GI50
CC(=O)NN(c1ccccc1)C1CCN(c2ccccc2)N1C(C)=O (stereo unspecified)	> 10 µM (inactive)
CCOC(=O)CC1(N)CC2c3ccccc3OC(=O)C2C(=O)N1 (stereo unspecified)	> 100 µM (inactive)
N#CCc1n[nH]c2nc(SCc3ccccc3)nc(N3CCCCC3)c12	38.9 µM (inactive)
O=C(CCc1nnc2s/c(=C\c3ccc(Cl)cc3Cl)c(=O)n12)Nc1cc(Cl)c(Cl)cc1Cl	> 10 µM (inactive)
O=c1c2cc3c(cc2c2cccc4c2n1CCC4)OCO3	48.1 µM (inactive)
COc1ccc2c(c1)c1ccc3c(c1n2C)C(=O)C=CC3=O	11.4 µM (inactive)

* * *

Each entry below carries its reported GI50.
# Tested on: OVCAR-5
# measurement_notes: NCI tumour cell line growth inhibition, 48 h
Active and inactive are the calls of the source. Rule as the data show it: active = GI50 up to about 1.1 µM and inactive = higher.

molecule	GI50
CCOC(=O)C(C(=O)OCC)=c1sc(=C(C(=O)OCC)C(=O)OCC)s1	> 100 µM (inactive)
CC(=O)C1CC[C@@H]2[C@H](CC[C@]3(C)[C@@H](O)CC[C@@H]23)[C@H]1C(=O)O (stereo partly specified)	> 100 µM (inactive)
CN(N)/N=N/c1[nH]cnc1C(N)=O	> 89.7 µM (inactive)
CNC(=O)N(CCC#N)CCN(C(=O)N(C)C)c1ccccc1	> 100 µM (inactive)
C/C=C/C(C/C=C(\C)CO[Si](C)(C)C(C)(C)C)O[Si](C)(C)C(C)(C)C (stereo unspecified)	> 100 µM (inactive)
O=C1/C(=C/c2ccccc2)CN(C(=O)Oc2ccc([N+](=O)[O-])cc2)C/C1=C\c1ccccc1	> 10 µM (inactive)
CC(=O)N1c2cc(/N=N/N(C)C)ccc2NC(=O)CC1C (stereo unspecified)	> 100 µM (inactive)
CCOC(=O)CC1(N)CC2c3ccccc3OC(=O)C2C(=O)N1 (stereo unspecified)	> 100 µM (inactive)
C=C[C@@H](C)[C@]1(C(=O)OC)CCCC12OCCO2	> 100 µM (inactive)
O=S(=O)(N1CCCCN(S(=O)(=O)C(F)(F)F)CCCN(S(=O)(=O)C(F)(F)F)CCCN(S(=O)(=O)C(F)(F)F)CCCCN(S(=O)(=O)C(F)(F)F)CCCN(S(=O)(=O)C(F)(F)F)CCC1)C(F)(F)F	> 100 µM (inactive)
O=C(O)Cc1cc(F)ccc1C(=O)O	> 100 µM (inactive)
COc1ccccc1/C=C/C1=NN(c2cccc(S(=O)(=O)O)c2)C2(C1)C(Cl)C(=O)N2c1nc2ccccc2s1 (stereo unspecified)	> 100 µM (inactive)
O=C1C(O)=C(C(C2=C(O)C(=O)c3ccccc3C2=O)c2ccc(Cl)cc2)C(=O)c2ccccc21	7.93 µM (inactive)
COc1ccc(NC(=O)c2oc3cc(O)ccc3c(=O)c2C)c([N+](=O)[O-])c1	> 100 µM (inactive)
O=C(O)[C@@H]1CSCN1C(=O)[C@@H]1CCC(=S)N1	> 100 µM (inactive)
N#Cc1cccc2c1Sc1ccccc1N2	26.7 µM (inactive)
CCCCCC(/C=C/C1CCC(=O)C1CC#C[Si](C)(C)C)OCc1ccccc1 (stereo unspecified)	19.9 µM (inactive)
C=CCc1cccc(C(=O)/C=C(O)/C=C/c2ccccc2Cl)c1O	33.4 µM (inactive)
COc1ccccc1-c1cc(O)c2cccnc2n1	> 100 µM (inactive)
CCOC(=O)c1c(N2CCCC2)[nH]c(=O)c(C(c2ccc(OC)cc2)c2c(O)c(C(=O)OCC)c(N3CCCC3)[nH]c2=O)c1O	52.7 µM (inactive)
CN1C/C(=C\c2cccs2)C2=NN(C)C(c3cccs3)C2C1 (stereo unspecified)	> 100 µM (inactive)
C/C(=N\O)c1cccc(Nc2nc3ccccc3c3occc23)c1	14.9 µM (inactive)
BC(=O)NC(CC(C)C)C(=O)NCC(=O)NC1c2ccsc2C(=O)C1O.CN(C)C (stereo unspecified)	> 100 µM (inactive)
COC(=O)C(NC(=O)C12CCC(C)(C(=O)O1)C2(C)C)c1cc(C(C)(C)C)c(O)c(C(C)(C)C)c1 (stereo unspecified)	> 100 µM (inactive)
CC1=C2C3=C(C)C(=O)C(C)(C)CC[C@@]3(C)[C@]2(C)CCC(C)(C)C1=O	> 100 µM (inactive)
Cc1ccc(C(O)c2cnc(C)n2Cc2ccccc2)cc1 (stereo unspecified)	> 100 µM (inactive)
CC(=O)CC1(OC(=O)C2C(C=C(C)C)C2(C)C)C(=O)Nc2ccccc21 (stereo unspecified)	> 100 µM (inactive)
CCOC(=O)c1sc2nc(SC)nc3c2c1NCN3c1ccc2c(c1)OCCCO2	> 100 µM (inactive)
N#CCCN(CCC#N)c1ccc(/C=N\c2nc(-c3ccccc3)cs2)cc1	> 100 µM (inactive)
COc1cc2c(cc1OC)C(=O)N(c1ccc(O)cc1)C2	> 100 µM (inactive)
COc1ccc(N2C(=O)C3c4[nH]c5ccc(C)cc5c4C4CCC(c5ccccc5)CC4C3C2=O)cc1 (stereo unspecified)	> 100 µM (inactive)
NCCSCC(N)C(=O)O (stereo unspecified)	> 497 µM (inactive)
O=C(CSC(=S)N1CCOCC1)Nc1nc2c(s1)CCCC2	> 100 µM (inactive)
COc1ccc(Cc2nc3cc(C(F)(F)F)ccc3n2C[C@@H]2CCCN3CCCCC23)cc1 (stereo partly specified)	13.7 µM (inactive)
C1=NN(Cc2ccccc2)C(N(Cc2ccccc2)Cc2ccccc2)N1 (stereo unspecified)	13 µM (inactive)
N=C(N)NS(=O)(=O)c1ccc(NC(=O)c2cccc3c(Nc4ccc(S(=O)(=O)N=C(N)N)cc4)c4ccc(Cl)cc4nc23)cc1	> 100 µM (inactive)
CC(=O)OC(OC(C)=O)n1cc(C=O)c2ccccc21	> 100 µM (inactive)
O=c1c2cc3c(cc2c2cccc4c2n1CCC4)OCO3	58.7 µM (inactive)
CSc1ccc2c(c1)C(N1CCN(C)CC1)Cc1ccccc1S2 (stereo unspecified)	2.67 µM (inactive)
[C-]#[N+]C1(C(=O)OCC)CC1	> 100 µM (inactive)
CC1CCCC(C(=O)CC2CC(=O)NC(=O)C2)C1=O (stereo unspecified)	> 100 µM (inactive)
